test system: HT29 colon; experiment: NCI tumour cell line growth inhibition, 48 h
property: TGI

Here's what some known entries look like.
| compound | TGI |
| --- | --- |
| COc1cc(/C=C2\C(=O)N(c3cccc(NC(C)=O)c3)C(c3ccccc3)S2(=O)=O)cc(OC)c1OC (stereo not drawn) | > 100 µM |
| OCc1c(-c2cccs2)oc(-c2cccs2)c1CO | > 100 µM |
| COc1ccc2c(=O)c(-c3cc(OC)c(OC)cc3OC)coc2c1 | > 38.3 µM |
| CCN(Cc1cc(Cl)cc(C)c1O)Cc1c(O)ccc2ccccc12 | 28.1 µM |

Suppose we examine the compound `COC(=O)c1csc(-c2csc(CCNC(=O)OC(C)(C)C)n2)n1` ; what TGI value has been reported?
> 100 µM

Another: `COc1cc2c(cc1OC)C(CCN)=NCC2`
41.3 µM

----------
tested on: SN12C renal; test: NCI tumour cell line growth inhibition, 48 h
property: TGI

Here's what some known entries look like.
| molecule | system tested | TGI |
| --- | --- | --- |
| C=CCCC(O)c1cc(C)c(O)c(C)c1 (stereo unspecified) | SN12C renal | > 100 µM |
| CCOC(CBr)OC1C(=O)OCC1(C)C (stereo unspecified) | SN12C renal | > 100 µM |
| COc1ccc(C2=Nn3c(nnc3-c3ccc(F)c(Cl)c3)SC2)cc1 | SN12C renal | > 100 µM |
| O=C(c1ccc(Cl)cc1Cl)N1CCN(C(=O)c2ccc(Cl)cc2Cl)C1=S | SN12C renal | 34.4 µM |
| O=[N+]([O-])c1ccc2c(c1)nc1n2C(c2c(F)cccc2F)SC1 (stereo unspecified) | SN12C renal | > 100 µM |

Please turn your attention to the following entry.
Suppose we examine the molecule `O=[N+]([O-])c1ccc(Sc2cccc[n+]2[O-])c2nonc12` ; what TGI value has been reported?
22.6 µM

----------
Known GI50 of a selection of compounds
system: IGROV1 ovarian; experiment: NCI tumour cell line growth inhibition, 48 h

| compound | GI50 |
| --- | --- |
| COc1cc(C[C@H]2COC(=O)[C@]2(O)Cc2ccc(OCc3ccccc3)c(OC)c2)ccc1OCc1ccccc1 | > 100 µM |

Suppose we examine the compound `CN(C)CCNC(=O)c1ccc2c(c1)oc1cc3ccccc3c(=O)n12` ; what GI50 value has been reported?
10.6 µM

----------
test system: DMS 114 small cell lung; assay: NCI tumour cell line growth inhibition, 48 h
Think of 20 µM as a floor: if TGI stands on it or above, it is t; beneath it, f.

| compound | category |
| --- | --- |
| Nc1nnc(N)n1N | t |
| S=C1SCC2CCCN12 (centres undefined) | t |
| CCCCC[C@@H]1CCCC2NC(CCCCCO[Si](c3ccccc3)(c3ccccc3)C(C)(C)C)CCC21 (some centres undefined) | t |
| O=C1c2ccccc2C(=O)c2c1ccc1conc21 | f |
| COc1ccc2c(=O)c(-c3cc(OC)c(OC)cc3OC)coc2c1 | t |
| CC(C)(C)C1=CC(=N/N=c2\scc(-c3ccccc3)n2Cc2ccccc2)C=C(C(C)(C)C)C1=O | t |

Could you verify whether the entry `COCN1COCN(C)C1=O` shows TGI of no less than 20 µM?
t

Another: `O=C(n1c2ccccc2c2n[nH]c(=S)nc21)C(F)(F)F`
t

Another: `Cc1ccc(C(=O)Nc2ccc(S(=O)(=O)O)c3cc(S(=O)(=O)O)cc(S(=O)(=O)O)c23)cc1NC(=O)c1cccc(NC(=O)Nc2cccc(C(=O)Nc3cc(C(=O)Nc4ccc(S(=O)(=O)O)c5cc(S(=O)(=O)O)cc(S(=O)(=O)O)c45)ccc3C)c2)c1`
t

Another: `COc1ccc2nc3cc(Cl)ccc3c(Sc3ccc(N)cc3)c2c1`
f

Another: CCC1(O)C(=O)OCc2c1cc1n(c2=O)Cc2cc3cc4c(cc3nc2-1)OCO4 (centres undefined)
f

Another: CC(=O)OC1(Sc2ccccc2)CC2[C@H]3COC(C)(C)O[C@H]3CC[C@@]2(C)CC1=O (some centres undefined)
t

Another: `CN(C)CCNC(=O)c1cccc2c1C(=O)c1ccccc1C2=O`
t

Another: `COc1ccc2[nH]c3c(C)c4c(c(C)c3c2c1)CN(C)C=C4`
f

----------
Known TGI of a selection of molecules
test system: SK-MEL-5 melanoma; test: NCI tumour cell line growth inhibition, 48 h
Reply with just the number (in µM).

| molecule | TGI / µM |
| --- | --- |
| CCN(CC)Cc1cc(N=Nc2c(O)ccc3c(N=Nc4ccc(O)c(CN(CC)CC)c4)c(O)ccc23)ccc1O | 7.42 |
| O=C1C=C(NCCc2ccc(O)c([N+](=O)[O-])c2)C(=O)c2[nH]cnc21 | 30.3 |

Please turn your attention to the following entry.
Suppose we examine the molecule CC(NCCN(C)C)C1CCC2C3CCc4cc(O)ccc4C3CCC12C (configuration not stated) ; what TGI value has been reported?
3.29

----------
system: HCT-116 colon; test: NCI tumour cell line growth inhibition, 48 h; in the data active means GI50 below about 0.43 µM; inactive means the rest
Write down one outcome, taken from y (active), n (inactive)

| smiles entry | system tested | category |
| --- | --- | --- |
| Nc1c(C(=O)c2cccc(-c3cccnc3)c2)cnn1-c1ccc(F)cc1 | HCT-116 colon | n |
| Cc1cc(NC(=O)NCCOc2ccc(N3C(N)=NC(N)=NC3(C)C)cc2Cl)ccc1S(=O)(=O)F | HCT-116 colon | n |
| O=C(CSSCC(=O)c1ccc(Cl)cc1)c1ccc(Cl)cc1 | HCT-116 colon | n |

Shifting focus to the molecule that follows.
Query: recorded result category for `COc1ccc(C2=Nn3c(nnc3-c3ccc(F)c(Cl)c3)SC2)cc1` in this test
n

----------
Known TGI of a selection of molecules
tested on: UO-31 renal; experiment: NCI tumour cell line growth inhibition, 48 h

| molecule | TGI |
| --- | --- |
| CC1=NNC(=O)C1C1(C(=O)O)CC(c2c[nH]c3ccccc23)=NC(=S)N1 (centres undefined) | > 100 µM |
| Cc1c(C)c2cc3c(=O)c(CCl)coc3c(C)c2oc1=O | > 100 µM |
| CC(C)(C)C1=CC(=N/N=c2\scc(-c3ccccc3)n2Cc2ccccc2)C=C(C(C)(C)C)C1=O | > 100 µM |
| COc1ccc(SCc2cc(OC)ccc2OC)cc1 | > 100 µM |

Suppose we examine the molecule `O=C(NC(=S)Nc1ccc(Br)cc1)c1ccc2c(c1)Sc1ccccc1O2` ; what TGI value has been reported?
> 100 µM

Another: `Nc1cc(OCC2CCCCC2)nc(N)n1`
> 100 µM

Another: Nc1cc(C2CCCc3c2[nH]c2ccccc32)ccc1O (centres undefined)
> 100 µM

Another: `Nc1[nH]nc(Nc2ccccc2)c1-c1nc2ccccc2s1`
7.16 µM

Another: `Cc1ccc(C(=O)Nc2ccc(S(=O)(=O)O)c3cc(S(=O)(=O)O)cc(S(=O)(=O)O)c23)cc1NC(=O)c1cccc(NC(=O)Nc2cccc(C(=O)Nc3cc(C(=O)Nc4ccc(S(=O)(=O)O)c5cc(S(=O)(=O)O)cc(S(=O)(=O)O)c45)ccc3C)c2)c1`
87.3 µM

----------
test system: MDA-MB-435; test: NCI tumour cell line growth inhibition, 48 h
Think of 30 µM as a floor: if TGI stands on it or above, it is rule met; beneath it, rule not met.

| molecule | category |
| --- | --- |
| Nc1n[n+]([O-])c2ccc(Cl)cc2[n+]1[O-] | rule met |

Could you verify whether the entry `O=C1c2ccccc2C(=O)N1c1ccc(Cc2ccc(N3C(=O)c4ccccc4C3=O)cc2)cc1` shows TGI of no less than 30 µM?
rule met

Another: `O=S1(=O)OCCOS(=O)(=O)C1(F)Cc1ccccc1`
rule met

Another: `O=C(CCCc1cccc2[nH]c3c(c12)CN(Cc1ccccc1)CC3)c1ccc(F)cc1`
rule met

Another: `Nc1nc(N)nc(CCCCc2nc(N)nc(N)n2)n1`
rule met

Another: `Cc1cccc2c(=O)c3cccc([C@H](C)C(=O)O)c3oc12`
rule met

Another: `O=C(O)CCCN1C(=O)/C(=C/C(Cl)=C/c2ccccc2)SC1=S`
rule not met

Another: `CN(C)CCNC(=O)c1ccc2c(c1)oc1cc3ccccc3c(=O)n12`
rule met

Another: `O=C1c2ccccc2C(=O)c2c1ccc1conc21`
rule not met

Another: CN1C/C(=C\c2cccs2)C2=NN(c3ccccc3)C(c3cccs3)C2C1 (stereo not drawn)
rule not met

Another: `NCC(=O)Nc1ccc(Cl)cc1C(=O)c1ccc[nH]1`
rule met

Another: N#CC1=C(N)NC(=O)C(C#N)C12Nc1ccccc1S2 (stereo not drawn)
rule met

Another: COc1ccc(N2C(=O)C3ON(Cc4ccc(CC(N)=O)cc4)C(c4c5ccccc5c(C)c5ccccc45)C3C2=O)cc1 (stereo not drawn)
rule met

Another: `CC1=C[P+](c2ccccc2)(c2ccccc2)c2ccccc2O1`
rule not met

Another: `NCCCn1c(Cl)nc2ccccc21`
rule met

Another: `COc1cc(C[C@@]2(C)[C@@H]3CCC[C@H](CO)[C@@]3(C)CC[C@@H]2C)c(Cl)c(OC)c1`
rule not met

Another: `O=C1/C(=C/c2ccc(F)cc2)COc2ccc(O)c(O)c21`
rule not met

Another: CC(=O)C1=C(C)N(c2ccccc2)C2(O)C3=C(C(=O)c4ccccc4C3=O)C(O)=CC12Cl (stereo not drawn)
rule not met
